# Target Entity: T1, CFP WT βA3-crystallin (UniProt P05813 1-215)
# T1 construct: βA3-crystallin, wild type; Surmise: N1 vectors place the fluorescent protein at the C-terminus of the insert; Expressed as ~51 kDa protein; degraded products were also seen on blots; also called CFP βA3-crystallin; βA3- CFP; source: HeLa, transfected, in live cells
# Method Notes: FRET or BRET; FLIM-FRET in live HeLa cells co-transfected with CFP βA3-crystallin (donor) and YFP-tagged acceptors; donor life-time after 405 nm pulsed excitation; E = 1-TFRET/TCFP with TCFP 2.8 ns; 5-6 cells from 3 samples
# Condition Info: partners not purified
The binders listed here are annotated with their mean life-time of the donor CFP βA3-crystallin.
Value expressed in ns; do not type the unit.

Solved cases below.
YFP αB N146D crystallin (natural protein, UniProt P02511 1-175, looked up, αB-crystallin N146D, made by site-directed mutagenesis of the pZS Yellow1-N1 construct of αB-crystallin; Same limits as m12; source: HeLa, transfected, in live cells) MDIAIHHPWIRRPFFPFHSPSRLFDQFFGEHLLESDLFPTSTSLSPFYLRPPSFLRAPSWFDTGLSEMRLEKDRFSVNLDVKHFSPEELKVKVLGDVIEVHGKHEERQDEHGFISREFHRKYRIPADVDPLTITSSLSSDGVLTVDGPRKQVSGPERTIPITREEKPAVTAAPKK
2.2
YFP αB CD (core domain of αB-crystallin, 65–146 amino acids) (domain or fragment, UniProt P02511 65-146, looked up, αB-crystallin core domain, residues 65-146; also called αB CD-YFP; source: HeLa, transfected, in live cells) LSEMRLEKDRFSVNLDVKHFSPEELKVKVLGDVIEVHGKHEERQDEHGFISREFHRKYRIPADVDPLTITSSLSSDGVLTVN
2.5

Provide one value: measured mean life-time of the donor CFP βA3-crystallin of GPRKQVSGPERTIPITREEKPAVTAAPKK (domain or fragment, UniProt P02511 147-175, looked up, αB-crystallin C-terminal extension, residues 147-175; also called αB CTE-YFP; source: HeLa, transfected, in live cells) [YFP αB CTE (C-terminal extension of αB-crystallin, 147–175 amino acids)]
2.5
